Below, each entry is listed alongside its reported Mean blood flow accelaration (aortic), change from basal level.
# Test system: cats
# Experiment Summary: hemodynamics and activity of intact heart in cats under anesthesia
# Format: in vivo
# Condition Parameters: cats, 1.0 mg/kg i.v., after 30 min
Measured Metric: Mean blood flow accelaration (aortic), change from basal level (%)

- CN(C)CCSc1nc2ccccc2n1CCc1ccccc1 [Compound XX]: −3.2
- CCN(CC)CCSc1nc2cc(C)c(C)cc2[nH]1.Cl.Cl [XXIII, reference compound]: −2.4

---

# Tested on: Balb/c mice
# Experiment Summary: open-field test, Balb/c mice (passive type of emotional-stress reaction)
# Type: in vivo
# Condition Parameters: 0.5 mg/kg i.p., M ± mx
Measured Metric: Central activity (crossings)

• Cc1cc2nc(SCCN3CCOCC3)[nH]c2cc1C = 0.5
• Cc1cc2nc(SCCN3CCCCC3)[nH]c2cc1C = 4.7
• Cc1cc2nc(SCCN3CCCC3)[nH]c2cc1C = 4.3
• CCOc1ccc2nc(SCCN3CCOCC3)[nH]c2c1 = 2.9
